Data origin, for the record: patent US20260317320A1

Each entry below carries its reported IC50.
# test target: complement C5a receptor 1 (C5aR1) (Homo sapiens, UniProt P21730)
# Construct: β-galactosidase fragment (PathHunter enzyme complementation); host or cells: CHO-K1 (PathHunter CHO-K1 C5aR1 β-arrestin cell line)
# experiment description: β-arrestin recruitment via C5aR1 activation in live CHO-K1 cells (PathHunter), antagonist mode
# Type: cell-based
# condition description: antagonist mode; recombinant hC5a (EC90) as competing natural agonist; live CHO-K1 cells; read-out: [Antagonist] B-arrestin2 recruitment: Average IC50

molecule | IC50
Cc1cnc2cc([C@H]3CC[C@@H](c4c(C)cccc4F)C3)c(=O)n(Cc3nccnc3C(F)(F)F)c2n1 [197A] | < 500 nM
Cc1cccc(F)c1N1CCC(n2c(=O)c3nccnc3n(Cc3ncccc3C(F)(F)F)c2=O)CC1 [compound 42] | 500 to 5000 nM
Cc1cnc2cc(C3CCN(c4c(C)cccc4F)CC3)c(=O)n([C@@H]3CCC(F)(F)c4nccnc43)c2n1 [149A] | 5000 to 100000 nM
Cc1cnc2cc([C@H]3CC[C@H](c4c(C)ccnc4F)CC3)c(=O)n(Cc3ncccc3C(F)(F)F)c2n1 [147B] | < 500 nM
Cc1cnc2cc([C@H]3CC[C@H](c4c(C)cccc4F)CC3)c(=O)n(Cc3ncccc3C3CC3)c2n1 [compound 220] | < 500 nM
Cc1ccc2cc([C@H]3C[C@H](c4c(C)cccc4F)C3)c(=O)n(Cc3ncccc3C(F)(F)F)c2n1 [243A] | < 500 nM
Cc1ccc2cc([C@H]3CC[C@H](c4c(F)cccc4F)CC3)c(=O)n(Cc3ncccc3C3CC3)c2n1 [compound 245] | < 500 nM
COc1nccc(C)c1[C@H]1CC[C@H](c2cc3ccc(C)nc3n(Cc3ncccc3C(C)(F)F)c2=O)CC1 [compound 256] | < 500 nM
O=c1c(C2CCN(c3cnccc3C(F)(F)F)CC2)cc2nccnc2n1Cc1ncccc1C(F)(F)F [compound 60] | < 500 nM
Cc1cnc2cc(C3CCN(c4c(C)cccc4F)CC3)c(=O)n([C@H]3CCC(F)(F)c4nccnc43)c2n1 [149B] | < 500 nM
Cc1ccc2nc(C3CCN(c4c(C)cccc4F)CC3)c(=O)n(Cc3ncccc3C(F)(F)F)c2c1 [142A] | > 100000 nM
CCc1cnc2c(cc([C@H]3CC[C@H](c4c(C)cccc4F)CC3)c(=O)n2Cc2ncccc2C(F)(F)F)n1 [compound 211] | < 500 nM
CCc1cnc2cc([C@H]3CC[C@H](c4c(C)cccc4F)CC3)c(=O)n(Cc3ncccc3C(F)(F)F)c2n1 [compound 201] | < 500 nM
Cc1cccc(F)c1N1CCC(c2cc3nccnc3n([C@@H]3CCc4nccnc43)c2=O)CC1 [160B] | 5000 to 100000 nM
Cc1ccc2cc([C@H]3CC[C@H](c4c(C)cccc4F)CC3)c(=O)n(Cc3ncccc3CC(F)F)c2n1 [compound 268] | < 500 nM
COc1ccnc(F)c1N1CCC(c2cc3nccnc3n(Cc3ccccc3C(F)(F)F)c2=O)CC1 [compound 33] | 500 to 5000 nM
Cc1ncc2cc(C3CCN(c4c(C)cccc4F)CC3)c(=O)n(Cc3ncccc3OC(F)F)c2n1 [compound 105] | < 500 nM
Cc1c(C2CCN(c3cnccc3C(F)(F)F)CC2)c(=O)n(Cc2ncccc2F)c2nccnc12 [compound 86] | 500 to 5000 nM
O=c1c(C2CCN(c3cnccc3C(F)(F)F)CC2)cc2nccnc2n1Cc1nccnc1C(F)(F)F [compound 70] | 500 to 5000 nM
Cc1ccc2cc([C@H]3CC[C@H](c4c(C)cccc4F)CC3)c(=O)n(Cc3ncccc3OC(F)(F)F)c2n1 [compound 196] | < 500 nM
Cc1ncc2cc(C3CCN(c4c(C)cccc4F)CC3)c(=O)n(Cc3ncccc3C(F)(F)F)c2n1 [compound 81] | < 500 nM
Cc1cnc2cc([C@H]3CC[C@@H](c4c(C)ccnc4F)CC3)c(=O)n(Cc3nccnc3C)c2n1 [135A] | 5000 to 100000 nM
Cc1ccc2cc([C@H]3CC[C@H](c4c(C)cccc4F)CC3)c(=O)n(Cc3ncccc3C3CC3)c2n1 [compound 241] | < 500 nM
Cc1ccc2c(c1)nc(C1CCN(c3c(C)cccc3F)CC1)c(=O)n2Cc1nccnc1C(F)(F)F [144B] | > 100000 nM
Cc1cnc2cc([C@H]3CC[C@H](c4c(C)cccc4F)CC3)c(=O)n(Cc3ncccc3CC(F)F)c2n1 [compound 232] | < 500 nM
Cc1cnc2cc([C@H]3CC[C@H](c4c(F)ccc5cnn(C)c54)CC3)c(=O)n(Cc3ncccc3C(F)(F)F)c2n1 [compound 217] | 5000 to 100000 nM
Cc1cnc2c(C)c(C3CCN(c4c(C)cccc4F)CC3)c(=O)n(Cc3nccnc3C(F)(F)F)c2n1 [compound 73] | 500 to 5000 nM
Cc1cccc(F)c1[C@@H]1CC[C@@H](c2cc3nccnc3n(Cc3ncccc3C(F)(F)F)c2=O)C1 [200D] | < 500 nM
Cc1cnc2cc([C@H]3CC[C@H](c4c(C)cccc4F)C3)c(=O)n(Cc3ncccc3C(F)F)c2n1 [187B] | < 500 nM
Cc1cnc2cc(N3CCN(c4c(C)cccc4F)CC3)c(=O)n(Cc3nccnc3OC(F)F)c2n1 [161A] | 500 to 5000 nM

###

# test target: complement C5a receptor 1 (C5aR1) (Homo sapiens, UniProt P21730)
# Construct: β-galactosidase fragment (PathHunter enzyme complementation); host or cells: CHO-K1 (PathHunter CHO-K1 C5aR1 β-arrestin cell line)
# Sequence (P21730 1-350): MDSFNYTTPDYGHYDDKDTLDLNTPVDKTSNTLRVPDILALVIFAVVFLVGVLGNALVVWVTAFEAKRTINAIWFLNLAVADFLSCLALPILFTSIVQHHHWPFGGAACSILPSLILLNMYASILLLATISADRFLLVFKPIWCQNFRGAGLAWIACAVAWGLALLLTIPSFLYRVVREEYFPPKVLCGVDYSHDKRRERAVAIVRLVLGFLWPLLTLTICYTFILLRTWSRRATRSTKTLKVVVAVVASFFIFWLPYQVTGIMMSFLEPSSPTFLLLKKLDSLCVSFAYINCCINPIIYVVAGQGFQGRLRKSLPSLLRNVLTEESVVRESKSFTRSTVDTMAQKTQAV
# experiment description: β-arrestin recruitment via C5aR1 activation in live CHO-K1 cells (PathHunter), antagonist mode
# Format: cell-based
# condition description: antagonist mode; recombinant hC5a (EC90) as competing natural agonist; live CHO-K1 cells; read-out: [Antagonist] B-arrestin2 recruitment: Average IC50
property label: IC50

compound | test target | recorded value
Cc1ccnc(F)c1N1CCC(c2cc3nccnc3n(Cc3nccnc3C)c2=O)CC1 [compound 128] | complement C5a receptor 1 (C5aR1) (Homo sapiens, UniProt P21730) | 5000 to 100000 nM
COc1cccnc1Cn1c(=O)c([C@H]2CC[C@H](c3c(C)cccc3F)CC2)cc2ncc(C)nc21 [compound 199] | complement C5a receptor 1 (C5aR1) (Homo sapiens, UniProt P21730) | < 500 nM
Cc1cnc2cc([C@H]3CC[C@H](c4c(F)cnc5c4cnn5C)CC3)c(=O)n(Cc3ncccc3C(F)(F)F)c2n1 [compound 266] | complement C5a receptor 1 (C5aR1) (Homo sapiens, UniProt P21730) | 5000 to 100000 nM
Cc1c(C2CCN(c3cccnc3C(F)(F)F)CC2)c(=O)n(Cc2ccccc2F)c2nccnc12 [compound 11] | complement C5a receptor 1 (C5aR1) (Homo sapiens, UniProt P21730) | > 100000 nM
Cc1cnc2cc([C@H]3CC[C@H](c4c(C)cccc4F)CC3)c(=O)n(Cc3ncccc3CC(F)(F)F)c2n1 [compound 219] | complement C5a receptor 1 (C5aR1) (Homo sapiens, UniProt P21730) | < 500 nM
Cc1cnc2cc([C@@H]3CC[C@H](c4c(C)cccc4F)C3)c(=O)n(Cc3ncccc3C(F)(F)F)c2n1 [171B] | complement C5a receptor 1 (C5aR1) (Homo sapiens, UniProt P21730) | < 500 nM
Cc1cnc2cc([C@@H]3CC[C@H](c4c(C)cccc4F)C3)c(=O)n(Cc3ncccc3OC(F)F)c2n1 [175B] | complement C5a receptor 1 (C5aR1) (Homo sapiens, UniProt P21730) | < 500 nM
Cc1cnc2cc(N3CCC(c4c(C)cccc4F)CC3)c(=O)n(Cc3ncccc3C(F)(F)F)c2n1 [compound 101] | complement C5a receptor 1 (C5aR1) (Homo sapiens, UniProt P21730) | 500 to 5000 nM
Cc1cnc2cc([C@H]3CC[C@H](c4ccc5c(cnn5C)c4)CC3)c(=O)n(Cc3ncccc3C(F)(F)F)c2n1 [compound 192] | complement C5a receptor 1 (C5aR1) (Homo sapiens, UniProt P21730) | 500 to 5000 nM
O=c1c(C2CCN(c3ccccc3C(F)(F)F)CC2)cc2nccnc2n1Cc1ncccc1C(F)(F)F [compound 38] | complement C5a receptor 1 (C5aR1) (Homo sapiens, UniProt P21730) | < 500 nM
Cc1ccc2cc([C@H]3CC[C@H](c4c(C)cccc4F)CC3)c(=O)n(Cc3ccccc3C(F)(F)F)c2n1 [compound 225] | complement C5a receptor 1 (C5aR1) (Homo sapiens, UniProt P21730) | < 500 nM
Cc1cnc2cc(C3CCN(c4c(C)ccnc4F)CC3)c(=O)n(Cc3nccnc3C)c2n1 [compound 134] | complement C5a receptor 1 (C5aR1) (Homo sapiens, UniProt P21730) | < 500 nM
Cc1cccc(F)c1N1CCC(c2nc3ccccc3n(Cc3ncccc3C(F)(F)F)c2=O)CC1 [compound 139] | complement C5a receptor 1 (C5aR1) (Homo sapiens, UniProt P21730) | > 100000 nM
Cc1cnc2cc([C@H]3CC[C@@H](c4c(C)cccc4F)C3)c(=O)n(Cc3ncccc3C(F)F)c2n1 [187A] | complement C5a receptor 1 (C5aR1) (Homo sapiens, UniProt P21730) | < 500 nM
Cc1ccc2cc([C@H]3CC[C@H](c4ccccc4C(F)(F)F)CC3)c(=O)n(Cc3ncccc3OC(F)(F)F)c2n1 [compound 244] | complement C5a receptor 1 (C5aR1) (Homo sapiens, UniProt P21730) | < 500 nM
Cc1cnc2cc([C@H]3CC[C@H](c4c(C)nn(C)c4C)CC3)c(=O)n(Cc3ncccc3C(F)(F)F)c2n1 [compound 190] | complement C5a receptor 1 (C5aR1) (Homo sapiens, UniProt P21730) | 500 to 5000 nM
COc1nccc(C)c1[C@H]1CC[C@H](c2cc3ccc(C)nc3n(Cc3ncccc3CC(F)(F)F)c2=O)CC1 [compound 260] | complement C5a receptor 1 (C5aR1) (Homo sapiens, UniProt P21730) | < 500 nM
COc1nccc(C)c1[C@H]1CC[C@H](c2cc3ncc(C)nc3n(Cc3ncccc3C(F)(F)F)c2=O)CC1 [compound 230] | complement C5a receptor 1 (C5aR1) (Homo sapiens, UniProt P21730) | < 500 nM
Cc1cccc(F)c1N1CCC(c2cc3nccnc3n(Cc3ccc(C(F)(F)F)nc3)c2=O)CC1 [compound 14] | complement C5a receptor 1 (C5aR1) (Homo sapiens, UniProt P21730) | > 100000 nM
Cc1cnc2cc(C3CCN(c4nccnc4C)CC3)c(=O)n(Cc3ncccc3OC(F)(F)F)c2n1 [compound 153] | complement C5a receptor 1 (C5aR1) (Homo sapiens, UniProt P21730) | 500 to 5000 nM
Cc1cccc(F)c1N1CCC(c2cc3nccnc3n([C@H]3CCCc4ncccc43)c2=O)CC1 [49b] | complement C5a receptor 1 (C5aR1) (Homo sapiens, UniProt P21730) | 500 to 5000 nM
Cc1ncc2cc([C@H]3CC[C@H](c4c(C)cccc4F)CC3)c(=O)n(Cc3ncccc3OC(F)(F)F)c2n1 [compound 198] | complement C5a receptor 1 (C5aR1) (Homo sapiens, UniProt P21730) | < 500 nM
Cc1cnc2cc([C@H]3CC[C@H](c4c(C)cccc4F)CC3)c(=O)n([C@@H]3CCC(F)(F)c4nccnc43)c2n1 [174B] | complement C5a receptor 1 (C5aR1) (Homo sapiens, UniProt P21730) | 500 to 5000 nM
COc1ccnc(F)c1N1CCC(c2cc3ncc(C)nc3n(Cc3ncccc3C(F)(F)F)c2=O)CC1 [compound 85] | complement C5a receptor 1 (C5aR1) (Homo sapiens, UniProt P21730) | < 500 nM
Cc1cccc(F)c1N1CCC(c2c(C)c3nccnc3n(Cc3nccnc3OCC(F)(F)F)c2=O)CC1 [compound 4] | complement C5a receptor 1 (C5aR1) (Homo sapiens, UniProt P21730) | 500 to 5000 nM
Cc1cnc2cc(C3CCN(c4c(F)ccc5c4cnn5C)CC3)c(=O)n(Cc3ncccc3C(F)(F)F)c2n1 [compound 184] | complement C5a receptor 1 (C5aR1) (Homo sapiens, UniProt P21730) | 500 to 5000 nM
Cc1ccnc(F)c1N1CCC(c2cc3nccnc3n(Cc3ccccc3C(F)(F)F)c2=O)CC1 [compound 31] | complement C5a receptor 1 (C5aR1) (Homo sapiens, UniProt P21730) | < 500 nM
Cc1cccc(F)c1N1CCN(c2c(C)c3nccnc3n(Cc3ncccc3C(F)(F)F)c2=O)CC1 [compound 88] | complement C5a receptor 1 (C5aR1) (Homo sapiens, UniProt P21730) | < 500 nM
